- System: NCI-H522 lung
- test_method_notes: NCI-60 one-dose screen, 48 h (100 = growth as untreated, 0 = no growth, -100 = all killed)
- condition_info: 10 µM
This is part of a sample that, as a whole, favours compounds with a hit. Of some 83,000 tested, about 20% had one in any assay.
Lab note: anything with growth at or over 40% counts as condition met; the rest go in condition not met.

Req: Decide: is the reported value of growth for `C[C@@H]1C[C@@H]([C@H](O)CC2CC(=O)NC(=O)C2)C(=O)[C@@H](C)C1` equal to or greater than 40%?
Resp: condition not met

Req: Decide: is the reported value of growth for CC(Cc1ccc2c(c1)OCO2)NN (configuration not stated) equal to or greater than 40%?
Resp: condition met

Req: Form field: growth at least 40%? Entry: `O=C(CCl)Nc1ccc(Cl)cc1`
Resp: condition not met

Req: Exam item: decide whether the reported growth for CC[C@@]1(O)C[C@H](OC2CC(N(C)C)C(O)C(C)O2)c2c(cc3c(c2O)C(=O)c2c(O)ccc(O)c2C3=O)[C@H]1C(=O)OC (some centres not stated) is at least 40%.
Resp: condition not met

Req: Could you verify whether the entry O=C(O)c1cc(Cc2ccc(O)c(C(=O)O)c2)ccc1O (tested in a mixture with another compound) shows growth of no less than 40%?
Resp: condition not met

Next:
Req: Does the molecule `CC(C)c1cc([N+](=O)[O-])cc([N+](=O)[O-])c1O` have recorded growth that is 40% or more?
Resp: condition met

Req: Answer whether growth of `COc1cc([C@@H]2c3cc4c(c(O)c3C[C@H]3COC(=O)[C@@H]32)OCO4)cc(OC)c1OC` is greater than or equal to 40%.
Resp: condition not met

Req: Kindly determine if growth recorded for `NC(=O)c1cc([N+](=O)[O-])c(Cl)c([N+](=O)[O-])c1Cl` is above or exactly 40%.
Resp: condition not met

Req: Identify whether the reported growth of the following molecule is 40% or greater: `O=[N+]([O-])c1ccc(N(CCO)CCO)c2c1no[n+]2[O-]`
Resp: condition not met

Req: Identify whether the reported growth of the following molecule is 40% or greater: `O=S(=O)(F)c1ccc(Cl)cc1`
Resp: condition met

---

- Test system: BT-549 breast
- test_method_notes: NCI-60 one-dose screen, 48 h
- condition_info: 10 µM
About 83,000 compounds went through this panel and 20% of them were active in at least one assay; those are over-represented in the sample as a whole. The source made the active and inactive calls. The calls were made as follows: active = growth percent below 10; inactive = the rest.
Outcomes you can answer with include only these: True for active, False for inactive

Req: Given `CCCCCCCC[N+]12CN3CN(CN(C3)C1)C2` , state the outcome it received in this test.
Resp: False

Req: Hi team, can someone confirm the assay call for `CC(C)c1cc([N+](=O)[O-])cc([N+](=O)[O-])c1O` ?
Resp: False

Next:
Req: Could you please tell me the result logged for `NC(=O)c1cc([N+](=O)[O-])c(Cl)c([N+](=O)[O-])c1Cl` in this assay?
Resp: False

Req: // return assay outcome for `COc1cc(/C=C\[N+](=O)[O-])ccc1O`
Resp: False

Req: Record lookup: outcome of this test for `O=C(CBr)Nc1ccc(Cl)cc1` ?
Resp: False

Req: # outcome recorded in this test, key = `COc1cc([N+](=O)[O-])c2ncccc2c1[N+](=O)[O-]`
Resp: False

Req: What did this assay record as the result for `Cc1ccc(NC(=O)CBr)cc1` ?
Resp: False

Req: Any idea what this test logged for O=C(O)c1cc(Cc2ccc(O)c(C(=O)O)c2)ccc1O (tested in a mixture with another compound) ?
Resp: False

Req: For this compound, state the assay outcome: `C=C1C(=O)O[C@@H]2C[C@@H](C)[C@@H]3C=CC(=O)[C@@]3(C)[C@@H](O)[C@H]12`
Resp: True

Req: Can you look up the reported call for `O=S(=O)(F)c1ccc(Cl)cc1` for me?
Resp: False
